Would you mind telling me the reported viability, T/C of each entry?
- Test system: DMS-114 complex spheroids with HUVEC/MSC, growth % test/control
- protocolText: Anticancer human tumor DMS-114 cell line growth inhibition [AhR];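 note: spheroids exposed to agents for 7 days before readout; 100% = DMSO vehicle control wells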
- conditionSet: second compound 0.316 µM; first compound 0.316 µM; active compounds read low
Answers are plain numbers, in %.

Known viability, T/C results, listed for orientation:
>>> measuredresult("O=C(C=Cc1cccc(S(=O)(=O)Nc2ccccc2)c1)NO + CC(CO)NC(=O)c1cc(-c2ccc(Cl)cc2)nn(-c2cnn(C)c2)c1=O")
53.2
>>> measuredresult("Nc1ccn(C2OC(CO)C(O)C2(F)F)c(=O)n1 (configuration not stated) + Cc1ccccc1N=Nc1ccc(NC(=O)c2ccnn2C)c(C)c1")
26.3
>>> measuredresult("COc1cc(Nc2ncc3c(n2)-c2ccc(Cl)cc2C(c2c(F)cccc2OC)=NC3)ccc1C(=O)O + Cc1ccccc1N=Nc1ccc(NC(=O)c2ccnn2C)c(C)c1")
108
>>> measuredresult("Nc1ccccc1NC(=O)c1ccc(CNC(=O)OCc2cccnc2)cc1 + Cc1ccccc1N=Nc1ccc(NC(=O)c2ccnn2C)c(C)c1")
94.8
>>> measuredresult("COc1cc(C2c3cc4c(cc3C(OC3OC5COC(C)OC5C(O)C3O)C3COC(=O)C23)OCO4)cc(OC)c1O (configuration not stated) + Cc1ccccc1N=Nc1ccc(NC(=O)c2ccnn2C)c(C)c1")
84.4
>>> measuredresult("CC1(C)CCC(CN2CCN(c3ccc(C(=O)NS(=O)(=O)c4ccc(NCC5CCOCC5)c([N+](=O)[O-])c4)c(Oc4cnc5[nH]ccc5c4)c3)CC2)=C(c2ccc(Cl)cc2)C1 + CC(CO)NC(=O)c1cc(-c2ccc(Cl)cc2)nn(-c2cnn(C)c2)c1=O")
104

Quick batch: viability, T/C for everything below.
1. CC(C)c1c(-c2ccccc2)nc2c(C#N)c[nH]n2c1=O + Cc1cncc(-c2nc(NCCc3c[nH]c4ccccc34)c3ncn(C(C)C)c3n2)c1
2. COc1cc(Nc2ncc3c(n2)-c2ccc(Cl)cc2C(c2c(F)cccc2OC)=NC3)ccc1C(=O)O + Cc1cncc(-c2nc(NCCc3c[nH]c4ccccc34)c3ncn(C(C)C)c3n2)c1

OUT:
1: 103; 2: 40.9

###

- Tested on: DMS-114 complex spheroids with HUVEC/MSC, growth % test/control
- protocolText: Anticancer human tumor DMS-114 cell line growth inhibition [AhR]; active = viability on the fitted dose curve at most 10% of control; inactive = the rest;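 note: spheroids exposed to agents for 7 days before readout; 100% = DMSO vehicle control wells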
- conditionSet: second compound 1 µM; first compound 3.16 µM
- Excerpt: Multicellular complex tumor spheroid response to aryl hydrocarbon receptor antagonists in combination with a variety of drugs and investigational agents in selected tumor cell lines […] Compounds. […] If the clinical Cmax for an agent had not been determined, the highest concentration tested was 10 microM (Table 1). […]
Classes to choose from: 1.0 = active, 0.0 = inactive

>>> group("CC1(C)CCC(CN2CCN(c3ccc(C(=O)NS(=O)(=O)c4ccc(NCC5CCOCC5)c([N+](=O)[O-])c4)c(Oc4cnc5[nH]ccc5c4)c3)CC2)=C(c2ccc(Cl)cc2)C1 + Cc1ccccc1N=Nc1ccc(NC(=O)c2ccnn2C)c(C)c1")
0.0
>>> group("CC1COCCN1c1cc(C2(S(C)(=N)=O)CC2)nc(-c2ccnc3[nH]ccc23)n1 (stereo not drawn) + CC(CO)NC(=O)c1cc(-c2ccc(Cl)cc2)nn(-c2cnn(C)c2)c1=O")
0.0

Moving on to another compound below.
IN: Please state the recorded outcome for this compound: COc1cccc2c1C(=O)c1c(O)c3c(c(O)c1C2=O)CC(O)(C(=O)CO)CC3OC1CC(N)C(O)C(C)O1 (stereo not drawn) + Cc1cncc(-c2nc(NCCc3c[nH]c4ccccc34)c3ncn(C(C)C)c3n2)c1
OUT: 1.0
